Target: T1, SNTG1, Q9NSN8
T1 sequence (Q9NSN8 52-150, limits assumed, looked up): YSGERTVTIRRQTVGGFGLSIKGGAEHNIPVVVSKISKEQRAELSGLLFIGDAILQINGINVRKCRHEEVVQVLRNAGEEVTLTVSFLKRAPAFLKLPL
Experiment: holdup assay
Parameters: key: below the threshold = too weak to quantify, mostly under pKd 3.1 to 4
Conditions: plain residues with an end cap or a label only (N-terminal biotin on a linker: ahx)
readout.label: pKd

Consider the following illustrative entries.
>>> meas_value("KEYDDELTFF [USH1C, Q9Y6N9]")
"below the threshold"
>>> meas_value("SKKNELFSNL [NHERF1, O14745]")
"below the threshold"
>>> meas_value("HSATSVHTSV [MTMR1, Q13613]")
"below the threshold"
>>> meas_value("KDECVIATEV [DLL1, O00548]")
3.94
>>> meas_value("VNENQKEYFF [CNTNAP4, Q9C0A0]")
"below the threshold"
>>> meas_value("ADENEQVSAV [RAPGEF6, Q8TEU7]")
4.07

Lab note: next binder to report on.
Query: Look up pKd for this binder: SAPATLSSRA [PDLIM2, Q96JY6]
Response: below the threshold
